Where do the numbers come from? From PubChem BioAssay AID179.

pIC50 reference
Tested on: CEM cells HIV-1 protection, formazan growth assay
protocol_notes: NCI AIDS Antiviral Assay
condition_context: measured here: growth of uninfected CEM cells
pIC50: −log10 of the molar value.

molecule | tested_on | bound_sign | pIC50
O=C1N[C@H]2CS(=O)(=O)C[C@H]2N1 | CEM cells HIV-1 protection, formazan growth assay | < | 3.70
COC(=O)C12CCC(CC1=O)C2(C)C (stereo unspecified) | CEM cells HIV-1 protection, formazan growth assay | < | 3.60
C=C1C(C)C2C(Cc3ccccc3)NC(=O)C23C(OC(C)=O)C=CC(C)(O)C(=O)C(C)C/C=C/C3C1O (stereo unspecified) | CEM cells HIV-1 protection, formazan growth assay | = | 6.77
CCOC(=O)/C(C#N)=C/c1cccc([N+](=O)[O-])c1 | CEM cells HIV-1 protection, formazan growth assay | < | 4.67
CCN(CC)CCOc1ccc2c(c1)C(=O)c1cc(OCCN(CC)CC)ccc1-2 | CEM cells HIV-1 protection, formazan growth assay | = | 4.91
Nc1cc2c3c(cccc3c1)C(=O)N(CCN1CCCC1)C2=O | CEM cells HIV-1 protection, formazan growth assay | = | 5.97

====

Tested on: CEM cells HIV-1 protection, formazan growth assay
protocol_notes: NCI AIDS Antiviral Assay
condition_context: measured here: growth of uninfected CEM cells
pIC50: −log10 of the molar value. Where a SMILES comes first, the peptide text is derived from it. The star is where a group is joined. Cbz = O=C(OCc1ccccc1)*

molecule | tested_on | bound_sign | pIC50
CC(NC(=O)C(NC(=O)OCc1ccccc1)C(C)C)C(=O)NCC(=O)O (stereo not drawn) (Cbz-Val-Ala-Gly-OH; configuration not given here) | CEM cells HIV-1 protection, formazan growth assay | < | 3.70
CC(C)(C)C1CC[C@H]2c3c([nH]c4ccc(Br)cc34)[C@H]3C(=O)N(c4ccccc4)C(=O)[C@H]3[C@H]2C1 (stereo not given in full) | CEM cells HIV-1 protection, formazan growth assay | < | 5.14
CCn1nc(C(=O)O)c(=O)c2cc3c(cc21)OCO3 | CEM cells HIV-1 protection, formazan growth assay | < | 3.70
[N-]=[N+]=Nc1ccc2c(c1)Sc1ccccc1N2CCCCN1CCN(C(=O)CCNC(=O)Cc2ccc(C(=O)c3ccccc3)cc2)CC1 | CEM cells HIV-1 protection, formazan growth assay | = | 5.41
COC(C)(C)C1=CCC(C)CC1 (stereo not given) | CEM cells HIV-1 protection, formazan growth assay | < | 4.00
OCCCNc1ccnc2cc(Cl)ccc12 | CEM cells HIV-1 protection, formazan growth assay | = | 4.09
CC(=O)OCC1=C(CCC#N)N2C(=O)C(NC(=O)Cc3cccs3)C2S(=O)C1 (stereo not given) | CEM cells HIV-1 protection, formazan growth assay | = | 4.02
CCOC(=O)C(=Cc1cccc(C#N)c1)C(=O)OCC | CEM cells HIV-1 protection, formazan growth assay | = | 5.07
O=c1c2ccccc2n2n1Cc1ccccc1C2 | CEM cells HIV-1 protection, formazan growth assay | = | 3.99
O=C(/C=C/c1ccccc1Cl)c1ccccc1 | CEM cells HIV-1 protection, formazan growth assay | = | 4.84

====

Tested on: CEM cells HIV-1 protection, formazan growth assay
protocol_notes: NCI AIDS Antiviral Assay
condition_context: measured here: growth of uninfected CEM cells
Each entry below lists one item and its recorded IC50 value.

compound | readout_unit | bound_sign | IC50
CSc1cc(Cl)c(C)cc1S(=O)(=O)n1cc[nH]c1=O | µM | > | 200
CCCc1cc(=O)oc2c3c(c4c(c12)OC(C)(C)C=C4)O[C@H](C)[C@H](C)[C@@H]3O | µM | = | 6.46
Cc1c2c(n3c(nc4ccccc43)c1C#N)SCC2 | µM | > | 200
COC(=O)C1=CC[C@@H]2C(C(=O)O)=CO[C@@H](OC3OC(CO)C(O)C(O)C3O)[C@H]12 (stereo not given in full) | µM | > | 200
O=C1NC(N/N=C\C(O)C(O)C(O)C(O)CO)=N/C1=C\c1ccc(Cl)cc1 (stereo not given) | µM | = | 33.9
